molecular target: Autotaxin (Mus musculus, UniProt Q9R1E6); assay: Inhibition of ATX in mouse plasma after 2 hrs by LC-MS/MS analysis; assay type: cell-free; conditions: read-out: IC50
measurement_type: IC50

Prompt line: Please report the recorded IC50 for `Cc1cc(O)n2cc(-c3cccc(Br)c3)nc2n1` .
Response line: > 50000 nM

Prompt line: Same thing, different molecule: `COc1ccc(-c2cn3c(O)cc(C)nc3n2)cc1`
Response line: > 50000 nM

Prompt line: Further, for `Cc1ccc(-c2cn3c(O)cc(C)nc3n2)cc1` ?
Response line: > 50000 nM

Prompt line: Subsequent entry: `CCOC(=O)Cn1c(C)cc(=O)n2cc(-c3ccc(Cl)cc3)nc12`
Response line: 3.3 nM

Prompt line: Again, but for `Cc1cc(=O)n2cc(-c3ccc(Cl)cc3)nc2n1CC[N+](C)(C)C`
Response line: > 50000 nM

Prompt line: Try this molecule too: `CCOC(=O)Cn1c(C)cc(=O)n2cc(-c3ccc(I)cc3)nc12`
Response line: 19 nM

Prompt line: What do we get for `CCCCCCCCCC(=O)n1c(C)cc(=O)n2cc(-c3ccc(Cl)cc3)nc12` ?
Response line: 160 nM

Prompt line: Likewise for `Cc1cc(O)n2cc(-c3ccc(F)cc3)nc2n1` ?
Response line: > 50000 nM

Prompt line: What would you report for `Cc1cc(Cl)n2cc(-c3ccc(Cl)cc3)nc2n1` ?
Response line: > 50000 nM

Prompt line: Item: `Cc1cc(O)n2cc(-c3cccc([N+](=O)[O-])c3)nc2n1`
Response line: > 50000 nM

Prompt line: Could you do the same for `CCC(=O)Cn1c(C)cc(=O)n2cc(-c3ccc(Cl)cc3)nc12` , please?
Response line: 37 nM

###

target: Autotaxin (Mus musculus); assay: Inhibition of ATX in mouse plasma after 2 hrs by LC-MS/MS analysis; assay type: cell-free; details: read-out: IC50
Please note: IC50 exactly at 30 nM is not fulfilled. Only values below 30 nM get fulfilled.

Prompt line: Does this compound meet the criterion IC50 < 30 nM? `COC(=O)Cn1c(C)cc(=O)n2cc(-c3ccc(Cl)cc3)nc12`
Response line: fulfilled

Prompt line: Also check `Cc1cc(=O)n2cc(-c3ccc(Cl)cc3)nc2n1CC(=O)O`
Response line: not fulfilled

Prompt line: Next entry: `CCOC(=O)Cn1c(C)cc(=O)n2cc(-c3ccc(F)cc3)nc12`
Response line: not fulfilled

Prompt line: Now try `CCOCCn1c(C)cc(=O)n2cc(-c3ccc(Cl)cc3)nc12` .
Response line: fulfilled

Prompt line: Same again, this time with `CCCCCn1c(C)cc(=O)n2cc(-c3ccc(C)cc3)nc12`
Response line: not fulfilled

Prompt line: What do you have for `Cc1cc(O)n2cc(-c3ccccc3)nc2n1` ?
Response line: not fulfilled

Prompt line: Consider next the compound `CCOC(=O)Cn1c(C)cc(=O)n2cc(-c3cccc(Br)c3)nc12` in the same way.
Response line: not fulfilled

Prompt line: Follow-up entry: `CCOC(=O)Cn1c(C)cc(=O)n2cc(-c3cccc([N+](=O)[O-])c3)nc12`
Response line: not fulfilled

Prompt line: Another: `CCNC(=O)Cn1c(C)cc(=O)n2cc(-c3ccc(Cl)cc3)nc12`
Response line: not fulfilled

Prompt line: Ok, now `CCOC(=O)Cn1c(C)cc(=O)n2cc(-c3ccc(Br)cc3)nc12`
Response line: fulfilled

Prompt line: Moving on to `CCOC(=O)Cn1c(C)cc(=O)n2cc(-c3ccccc3)nc12`
Response line: not fulfilled

Prompt line: And then `CCCCn1c(C)cc(=O)n2cc(-c3ccc(Cl)cc3)nc12` , what is it?
Response line: fulfilled

Prompt line: Another compound to check: `Cc1cc(=O)n2cc(-c3ccc(Cl)cc3)nc2n1C`
Response line: not fulfilled

Prompt line: What about `Cc1cc(=O)n2cc(-c3ccc(Cl)cc3)nc2n1CCS(=O)(=O)O` ?
Response line: not fulfilled

Prompt line: Also `Cc1cc(O)n2cc(-c3ccc([N+](=O)[O-])cc3)nc2n1` ?
Response line: not fulfilled

Prompt line: Now give it for `CCCCCCn1c(C)cc(=O)n2cc(-c3ccc(Cl)cc3)nc12` too.
Response line: fulfilled

Prompt line: Another compound: `CCOC(=O)Cn1c(C)cc(=O)n2cc(-c3ccc(OC)cc3)nc12`
Response line: not fulfilled

Prompt line: Again, but for `CCOC(=O)Cn1c(C)cc(=O)n2cc(-c3ccc([N+](=O)[O-])cc3)nc12`
Response line: fulfilled

Prompt line: Moving on to the next compound: `CCOC(=O)Cn1c(C)cc(=O)n2cc(-c3ccc(N)cc3)nc12`
Response line: not fulfilled

Prompt line: Another compound to check: `Cc1cc(=O)n2cc(-c3ccc(Cl)cc3)nc2n1CC(=O)OCc1ccccc1`
Response line: not fulfilled

Prompt line: Repeat with `Cc1cc(=O)n2cc(-c3ccc(Cl)cc3)nc2n1C1CCCCC1`
Response line: not fulfilled

Prompt line: Same question, `Cc1cc(O)n2cc(-c3ccc(Cl)c(Cl)c3)nc2n1` this time
Response line: not fulfilled

Prompt line: Here is the next compound: `Cc1cc(O)n2cc(-c3ccc(Br)cc3)nc2n1`
Response line: not fulfilled

Prompt line: Next record, please: `CCCCCn1c(C)cc(=O)n2cc(-c3ccc(Cl)cc3)nc12`
Response line: fulfilled

Prompt line: Next up: `CCCn1c(C)cc(=O)n2cc(-c3ccc(Cl)cc3)nc12`
Response line: fulfilled

Prompt line: Also, `CCCCCCCn1c(C)cc(=O)n2cc(-c3ccc(Cl)cc3)nc12` please.
Response line: fulfilled

Prompt line: Moving on to `CCN(C)C(=O)Cn1c(C)cc(=O)n2cc(-c3ccc(Cl)cc3)nc12`
Response line: not fulfilled

Prompt line: Okay, and `Cc1cc(O)n2cc(-c3ccc(Cl)cc3)nc2n1` ?
Response line: not fulfilled
